Molecular target: full-length beta-Catenin (Uniprot ID P35222) (Homo sapiens (Human)) (UniProt P35222)
Test: fluorescence polarization competition; displacement of 5FAM-TCF4(10-53) from full-length beta-catenin
Starred links: 1 amine or outer side, 2 acyl side, 3 side chain; linkers in the order of their positions; H or OH if unused. Positions of bridges follow the written chain, without caps; N, C: chain ends. Non-standard residues stand in square brackets, D forms with d. Groups on a side chain read outwards from the residue. Primed or numbered codes have the meaning given here. *: point of attachment. PyrS2″ = (S)-3-amino-1-((pent-4-en-1-yloxy)carbonyl)pyrrolidine-3-carboxylic acid (stapling residue), C=CCCCOC(=O)N1CC[C@@](N[*:1])(C(=O)[*:2])C1; B5(4) = 2,2-bis(4-pentenyl)glycine = 2-amino-2-(pent-4-en-1-yl)hept-6-enoic acid (stitching residue), C=CCCCC(CCCC=C)(N[*:1])C(=O)[*:2]; B5(5) = 2,2-bis(4-pentenyl)glycine, 2-amino-2-(pent-4-en-1-yl)hept-6-enoic acid (stitching residue), C=CCCCC(CCCC=C)(N[*:1])C(=O)[*:2]; PyrS2 = (S)-3-amino-1-((pent-4-en-1-yloxy)carbonyl)pyrrolidine-3-carboxylic acid, C=CCCCOC(=O)N1CC[C@@](N[*:1])(C(=O)[*:2])C1; B5(27) = 2-amino-2-(pent-4-en-1-yl)hept-6-enoic acid (two alkene side-chain arms), C=CCCCC(CCCC=C)(N[*:1])C(=O)[*:2]; MePpzAsn = (S)-2-amino-4-(4-methylpiperazin-1-yl)-4-oxobutanoic acid, CN1CCN(C(=O)C[C@H](N[*:1])C(=O)[*:2])CC1; Lithocholoyl = C[C@H](CCC(=O)*)[C@H]1CC[C@H]2[C@@H]3CC[C@@H]4C[C@H](O)CC[C@]4(C)[C@H]3CC[C@]12C; B5(3) = 2,2-bis(4-pentenyl)glycine (stitching residue), C=CCCCC(CCCC=C)(N[*:1])C(=O)[*:2]; MorphAbu = (S)-2-amino-4-morpholinobutanoic acid, O=C([C@H](CCN1CCOCC1)N[*:1])[*:2]; Phe(2-Cl) = N[C@@H](Cc1ccccc1Cl)C(=O)O; 1Nal = N[C@@H](Cc1cccc2ccccc12)C(=O)O; Bta = N[C@@H](Cc1csc2ccccc12)C(=O)O; αAllylPro = C=CC[C@@]1(C(=O)O)CCCN1; tBuAla = CC(C)(C)C[C@H](N)C(=O)O; 3Thi = N[C@@H](Cc1ccsc1)C(=O)O; Cha = N[C@@H](CC1CCCCC1)C(=O)O; hSer = N[C@@H](CCO)C(=O)O; PEG2′ = not defined here
measurementKind: IC50 (nM)

Below are worked cases with known answers.
Ac-[αAllylPro]DT[B5(5)]DDAAFL[PyrS2″][3Thi][Bta][hSer]-NH2 (staple 1-4, 4-11) [I-1516: Ac-PL3-Asp-Thr-B5-Asp-Asp-Ala-Ala-Phe-Leu-PyrS2-3Thi-BztA-Hse-NH2] = 30
Ac-[αAllylPro]D[Cha][B5(5)]DDAAFL[PyrS2″][Phe(2-Cl)][Bta]S-NH2 (staple 1-4, 4-11) [I-1112] = 40
Ac-[αAllylPro]D[tBuAla][B5(4)]DDAK([PEG2′-Lithocholoyl])FL[PyrS2″][3Thi][Bta]Q-NH2 (staple 1-4, 4-11) [I-1474] = 41

[a] Ac-[αAllylPro]D[tBuAla][B5(3)]DQAAFN[PyrS2″][3Thi][Bta]Q-NH2 (staple 1-4, 4-11) [I-838]
[b] Ac-[αAllylPro]D[tBuAla][B5(27)]DDA[MorphAbu]FL[PyrS2][3Thi][Bta]Q-NH2 (staple 1-4, 4-11) [I-1504]
Quick check, higher IC50 between a and b ? Selection: enter the item's label. b

[1] Ac-[αAllylPro]D[tBuAla][B5(3)]DDAAF[MePpzAsn][PyrS2″][3Thi][Bta]Q-NH2 (staple 1-4, 4-11) [I-1488]
[2] Ac-[αAllylPro]D[1Nal][B5(3)]DDAAFS[PyrS2″][Phe(2-Cl)][Bta]Q-NH2 (staple 1-4, 4-11) [I-1108]
Two entries are listed, 1 and 2 . Which one carries the higher IC50? Refer to your chosen item by its label in the answer. 2
